tested on: FYN; assay: Tyrosine kinase inhibition assay; assay type: biochemical; details: single concentration 1.0 μM
Quick list: percent inhibition per entry.
API: value field is a number in %; no unit string.

Please review the entries below; each comes with its answer.
- COc1cc2nccc(Oc3ccc(NC(=O)C4(C(=O)Nc5ccc(F)cc5)CC4)cc3F)c2cc1Oc1ccc(N)cc1F: 51
- COc1cc2nccc(Oc3ccc(NC(=O)C4(NC(=O)c5ccc(F)cc5)CC4)cc3F)c2cc1OC: 16
- COc1cc2nccc(Oc3ccc(NC(=O)C4(NC(=O)c5ccc(F)cc5)CC4)cc3F)c2cc1Oc1ccc(N)cc1F: 35

Here is the next item to consider.
Entry `COc1cc2nccc(Oc3ccc(NC(=O)C4(NC(=O)c5ccc(F)cc5)CC4)cc3F)c2cc1Oc1c(F)cc(N)cc1F` , percent inhibition reported as 48

###

The reader will find pIC50 measurements below, all made with MERTK (cMER) (Homo sapiens, UniProt Q12866).
Sequence (Q12866 21-999): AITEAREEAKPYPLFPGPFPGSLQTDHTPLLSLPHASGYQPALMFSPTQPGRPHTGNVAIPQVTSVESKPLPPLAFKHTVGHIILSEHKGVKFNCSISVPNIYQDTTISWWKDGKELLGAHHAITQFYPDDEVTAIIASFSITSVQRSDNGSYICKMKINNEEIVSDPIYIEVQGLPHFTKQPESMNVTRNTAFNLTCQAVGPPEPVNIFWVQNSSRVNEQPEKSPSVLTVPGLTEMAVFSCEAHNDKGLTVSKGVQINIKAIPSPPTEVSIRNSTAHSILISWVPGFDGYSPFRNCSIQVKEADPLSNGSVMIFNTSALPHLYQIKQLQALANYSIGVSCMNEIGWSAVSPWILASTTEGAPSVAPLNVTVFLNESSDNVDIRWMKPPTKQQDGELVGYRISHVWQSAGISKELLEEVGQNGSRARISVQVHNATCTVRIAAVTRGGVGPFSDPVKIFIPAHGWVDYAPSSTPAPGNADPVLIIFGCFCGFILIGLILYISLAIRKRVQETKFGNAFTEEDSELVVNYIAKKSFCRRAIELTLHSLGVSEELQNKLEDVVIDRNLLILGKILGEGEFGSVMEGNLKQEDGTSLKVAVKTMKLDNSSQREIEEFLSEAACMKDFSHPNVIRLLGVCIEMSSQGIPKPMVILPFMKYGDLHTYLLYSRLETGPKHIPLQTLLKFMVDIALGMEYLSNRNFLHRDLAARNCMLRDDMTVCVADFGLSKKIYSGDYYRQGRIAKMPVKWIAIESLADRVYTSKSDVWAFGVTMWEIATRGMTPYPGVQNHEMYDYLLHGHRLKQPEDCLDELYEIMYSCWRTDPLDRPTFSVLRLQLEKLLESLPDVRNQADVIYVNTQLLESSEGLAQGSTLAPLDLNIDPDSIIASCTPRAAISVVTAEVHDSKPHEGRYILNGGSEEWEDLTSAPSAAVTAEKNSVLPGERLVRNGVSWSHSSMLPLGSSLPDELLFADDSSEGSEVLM
By convention, pIC50 is the negative base-10 log of a molar concentration.

• CNC(=O)c1cc2c(Oc3ccc(NC(=O)C4(C(=O)Nc5ccc(F)cc5)CC4)cc3)ccnc2cc1OC [Zanzalintinib, reference compound] = 8.16

Here is the next item to consider.
Log: MERTK (cMER) (Homo sapiens, UniProt Q12866), compound COc1cc2nccc(Oc3ccc(NC(=O)C4(C(=O)Nc5ccc(F)cc5)CC4)cc3F)c2cc1Oc1ccc(N)cc1F [Cbo-23] , pIC50 = 8.43

###

Biological target: PDGFRB (PDGFR beta) (Homo sapiens, UniProt P09619)
Sequence (P09619 33-1106): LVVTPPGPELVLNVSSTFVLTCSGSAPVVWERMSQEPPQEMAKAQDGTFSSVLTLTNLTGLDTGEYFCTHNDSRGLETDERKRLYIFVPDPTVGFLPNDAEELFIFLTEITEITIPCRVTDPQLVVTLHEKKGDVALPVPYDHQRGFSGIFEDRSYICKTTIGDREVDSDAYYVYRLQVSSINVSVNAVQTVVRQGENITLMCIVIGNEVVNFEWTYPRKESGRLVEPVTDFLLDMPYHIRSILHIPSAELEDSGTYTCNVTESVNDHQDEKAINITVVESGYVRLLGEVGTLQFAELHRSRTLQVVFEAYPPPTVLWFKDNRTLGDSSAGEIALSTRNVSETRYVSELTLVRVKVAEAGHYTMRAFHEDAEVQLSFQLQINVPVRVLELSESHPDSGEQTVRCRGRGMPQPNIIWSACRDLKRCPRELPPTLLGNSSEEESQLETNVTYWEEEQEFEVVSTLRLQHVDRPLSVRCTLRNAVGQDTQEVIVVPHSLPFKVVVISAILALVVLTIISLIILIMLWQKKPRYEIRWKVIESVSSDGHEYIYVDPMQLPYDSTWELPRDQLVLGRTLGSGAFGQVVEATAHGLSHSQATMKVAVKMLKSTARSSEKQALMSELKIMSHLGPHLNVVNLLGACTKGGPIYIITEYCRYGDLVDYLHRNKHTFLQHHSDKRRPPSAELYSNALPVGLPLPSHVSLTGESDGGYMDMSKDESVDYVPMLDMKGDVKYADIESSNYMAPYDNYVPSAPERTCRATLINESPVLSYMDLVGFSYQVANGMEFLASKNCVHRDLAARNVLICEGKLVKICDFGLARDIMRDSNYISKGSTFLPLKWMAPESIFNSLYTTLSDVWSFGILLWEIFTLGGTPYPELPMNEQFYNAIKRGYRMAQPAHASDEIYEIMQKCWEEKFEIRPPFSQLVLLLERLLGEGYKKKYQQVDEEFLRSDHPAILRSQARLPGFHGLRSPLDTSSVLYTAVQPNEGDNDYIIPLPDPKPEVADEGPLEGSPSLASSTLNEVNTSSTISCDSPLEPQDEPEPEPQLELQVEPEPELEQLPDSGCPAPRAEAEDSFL
Assay: Tyrosine kinase inhibition assay
Format: biochemical
Settings: single concentration 1.0 μM, read-out: percent inhibition
Description: Tyrosine kinase inhibition assays were performed at ThermoFisher Life Technologies (Madison, WI, USA) using standard protocols (SelectScreen Biochemical Profiling Service, Thermo Fisher Scientific). ATP concentrations used were at the apparent Km. […] The apparent ATP Km was previously determined using a Z′-LYTE assay. […] The inhibition activities of compounds were determined in biochemical assays using single concentration (1.0 μM) measurements. […]
MEASURE_NAME: inhibition at 1 µM (%)
API: value field is a number in %; no unit string.

Please review the entries below; each comes with its answer.
- COc1cc2nccc(Oc3ccc(NC(=O)C4(NC(=O)c5ccc(F)cc5)CC4)cc3F)c2cc1OC: 34
- COc1cc2nccc(Oc3ccc(NC(=O)C4(NC(=O)c5ccc(F)cc5)CC4)cc3F)c2cc1Oc1c(F)cc(N)cc1F: 56
- COc1cc2nccc(Oc3ccc(NC(=O)C4(C(=O)Nc5ccc(F)cc5)CC4)cc3)c2cc1OC [Cabozantinib, reference compound]: 73
- COc1cc2nccc(Oc3ccc(NC(=O)C4(NC(=O)c5ccc(F)cc5)CC4)cc3F)c2cc1Oc1ccc(N)cc1F: 52

Here is the next item to consider.
Entry `COc1cc2nccc(Oc3ccc(NC(=O)C4(C(=O)Nc5ccc(F)cc5)CC4)cc3F)c2cc1Oc1ccc(N)cc1F` , inhibition at 1 µM reported as 56

###

target: SRC (Homo sapiens, UniProt P12931); test: Tyrosine kinase inhibition assay; assay type: biochemical; settings: single concentration 1.0 μM, read-out: percent inhibition
Sequence (P12931 whole entry): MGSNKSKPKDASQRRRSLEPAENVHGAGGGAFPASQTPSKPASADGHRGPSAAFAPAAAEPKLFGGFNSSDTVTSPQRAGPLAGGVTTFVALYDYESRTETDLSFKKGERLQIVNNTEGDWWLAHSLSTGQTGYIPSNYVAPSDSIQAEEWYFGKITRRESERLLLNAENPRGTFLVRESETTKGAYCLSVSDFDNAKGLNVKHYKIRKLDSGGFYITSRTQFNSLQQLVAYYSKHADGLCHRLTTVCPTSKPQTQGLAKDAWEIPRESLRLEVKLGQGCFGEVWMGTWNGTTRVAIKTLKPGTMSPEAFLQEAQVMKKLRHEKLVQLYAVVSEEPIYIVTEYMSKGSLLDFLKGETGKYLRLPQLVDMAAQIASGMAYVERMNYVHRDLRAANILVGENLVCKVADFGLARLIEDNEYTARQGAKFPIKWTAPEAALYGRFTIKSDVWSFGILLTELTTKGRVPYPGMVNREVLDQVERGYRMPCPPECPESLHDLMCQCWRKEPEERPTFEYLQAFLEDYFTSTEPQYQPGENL
Quick list: inhibition at 1 µM per entry.
API: value field is a number in %; no unit string.

Please review the entries below; each comes with its answer.
* COc1cc2nccc(Oc3ccc(NC(=O)C4(C(=O)Nc5ccc(F)cc5)CC4)cc3F)c2cc1Oc1ccc(N)cc1F | 94
* COc1cc2nccc(Oc3ccc(NC(=O)C4(C(=O)Nc5ccc(F)cc5)CC4)cc3)c2cc1OC [Cabozantinib, reference compound] | 89
* COc1cc2nccc(Oc3ccc(NC(=O)C4(NC(=O)c5ccc(F)cc5)CC4)cc3F)c2cc1OC | 42

Entry `COc1cc2nccc(Oc3ccc(NC(=O)C4(NC(=O)c5ccc(F)cc5)CC4)cc3F)c2cc1Oc1ccc(N)cc1F` , inhibition at 1 µM reported as 86

Entry `COc1cc2nccc(Oc3ccc(NC(=O)C4(NC(=O)c5ccc(F)cc5)CC4)cc3F)c2cc1Oc1c(F)cc(N)cc1F` , inhibition at 1 µM reported as 86

###

target: NTRK2 (TRKB) (Homo sapiens, UniProt Q16620); experiment: Tyrosine kinase inhibition assay; format: biochemical; settings: NTRK2 (TRKB); read-out: IC50 of compound
MEASURE_NAME: pIC50
By convention, pIC50 is the negative base-10 log of a molar concentration.

- CNC(=O)c1cc2c(Oc3ccc(NC(=O)C4(C(=O)Nc5ccc(F)cc5)CC4)cc3)ccnc2cc1OC [Zanzalintinib, reference compound]: 6.95

Here is the next item to consider.
Log: NTRK2 (TRKB) (Homo sapiens, UniProt Q16620), molecule COc1cc2nccc(Oc3ccc(NC(=O)C4(C(=O)Nc5ccc(F)cc5)CC4)cc3F)c2cc1Oc1ccc(N)cc1F [Cbo-23] , pIC50 = 7.83

###

target: PTK6 (Brk) (Homo sapiens, UniProt Q13882); test: Tyrosine kinase inhibition assay; assay type: biochemical; conditions: single concentration 1.0 μM, read-out: percent inhibition
Quick list: inhibition at 1 µM per entry.
API: value field is a number in %; no unit string.

Entry `COc1cc2nccc(Oc3ccc(NC(=O)C4(NC(=O)c5ccc(F)cc5)CC4)cc3F)c2cc1Oc1ccc(N)cc1F` , inhibition at 1 µM reported as 91

###

The reader will find pIC50 measurements below, all made with SRC (Homo sapiens, UniProt P12931).
By convention, pIC50 is the negative base-10 log of a molar concentration.

Please review the entries below; each comes with its answer.
* COc1cc2nccc(Oc3ccc(NC(=O)C4(C(=O)Nc5ccc(F)cc5)CC4)cc3)c2cc1OC [Cabozantinib, reference compound] | 6.85
* CNC(=O)c1cc2c(Oc3ccc(NC(=O)C4(C(=O)Nc5ccc(F)cc5)CC4)cc3)ccnc2cc1OC [Zanzalintinib, reference compound] | 7.35

Here is the next item to consider.
Entry `COc1cc2nccc(Oc3ccc(NC(=O)C4(C(=O)Nc5ccc(F)cc5)CC4)cc3F)c2cc1Oc1ccc(N)cc1F` , pIC50 reported as 7.49

###

target: TXK (Homo sapiens, UniProt P42681); experiment: Tyrosine kinase inhibition assay; format: biochemical; details: single concentration 1.0 μM, read-out: percent inhibition
Sequence (P42681 whole entry): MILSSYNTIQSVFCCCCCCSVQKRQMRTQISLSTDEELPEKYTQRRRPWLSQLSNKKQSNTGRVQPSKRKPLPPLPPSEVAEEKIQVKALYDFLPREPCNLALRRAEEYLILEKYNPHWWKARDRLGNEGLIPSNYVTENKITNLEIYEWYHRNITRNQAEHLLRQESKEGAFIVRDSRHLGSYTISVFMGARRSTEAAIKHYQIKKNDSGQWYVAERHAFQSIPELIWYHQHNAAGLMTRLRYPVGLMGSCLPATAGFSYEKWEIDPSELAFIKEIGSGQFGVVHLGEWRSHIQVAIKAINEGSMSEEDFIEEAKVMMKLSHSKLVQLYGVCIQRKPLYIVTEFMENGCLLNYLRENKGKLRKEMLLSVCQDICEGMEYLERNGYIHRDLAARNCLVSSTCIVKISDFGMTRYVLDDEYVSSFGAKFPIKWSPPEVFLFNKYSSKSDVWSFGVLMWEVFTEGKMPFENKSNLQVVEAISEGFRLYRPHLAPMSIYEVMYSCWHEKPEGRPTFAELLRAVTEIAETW
We use 50% as the dividing line for inhibition at 1 µM: on or above the line is met, below is not met.

Solved cases below.
- COc1cc2nccc(Oc3ccc(NC(=O)C4(NC(=O)c5ccc(F)cc5)CC4)cc3F)c2cc1Oc1c(F)cc(N)cc1F [Cbo-14]: met
- COc1cc2nccc(Oc3ccc(NC(=O)C4(C(=O)Nc5ccc(F)cc5)CC4)cc3F)c2cc1Oc1ccc(N)cc1F [Cbo-23]: not met
- COc1cc2nccc(Oc3ccc(NC(=O)C4(NC(=O)c5ccc(F)cc5)CC4)cc3F)c2cc1Oc1ccc(N)cc1F [Cbo-10]: met
- COc1cc2nccc(Oc3ccc(NC(=O)C4(C(=O)Nc5ccc(F)cc5)CC4)cc3)c2cc1OC [Cabozantinib, reference compound]: not met

Read the next record carefully.
**Q:** Could you please find out whether COc1cc2nccc(Oc3ccc(NC(=O)C4(NC(=O)c5ccc(F)cc5)CC4)cc3F)c2cc1OC [Cbo-02] has inhibition at 1 µM that meets 50% or exceeds it?
**A:** not met

###

Quick list: inhibition at 1 µM per entry.
target: TYK2 (Homo sapiens, UniProt P29597); experiment: Tyrosine kinase inhibition assay; format: biochemical; details: single concentration 1.0 μM, read-out: percent inhibition
Sequence (P29597 whole entry): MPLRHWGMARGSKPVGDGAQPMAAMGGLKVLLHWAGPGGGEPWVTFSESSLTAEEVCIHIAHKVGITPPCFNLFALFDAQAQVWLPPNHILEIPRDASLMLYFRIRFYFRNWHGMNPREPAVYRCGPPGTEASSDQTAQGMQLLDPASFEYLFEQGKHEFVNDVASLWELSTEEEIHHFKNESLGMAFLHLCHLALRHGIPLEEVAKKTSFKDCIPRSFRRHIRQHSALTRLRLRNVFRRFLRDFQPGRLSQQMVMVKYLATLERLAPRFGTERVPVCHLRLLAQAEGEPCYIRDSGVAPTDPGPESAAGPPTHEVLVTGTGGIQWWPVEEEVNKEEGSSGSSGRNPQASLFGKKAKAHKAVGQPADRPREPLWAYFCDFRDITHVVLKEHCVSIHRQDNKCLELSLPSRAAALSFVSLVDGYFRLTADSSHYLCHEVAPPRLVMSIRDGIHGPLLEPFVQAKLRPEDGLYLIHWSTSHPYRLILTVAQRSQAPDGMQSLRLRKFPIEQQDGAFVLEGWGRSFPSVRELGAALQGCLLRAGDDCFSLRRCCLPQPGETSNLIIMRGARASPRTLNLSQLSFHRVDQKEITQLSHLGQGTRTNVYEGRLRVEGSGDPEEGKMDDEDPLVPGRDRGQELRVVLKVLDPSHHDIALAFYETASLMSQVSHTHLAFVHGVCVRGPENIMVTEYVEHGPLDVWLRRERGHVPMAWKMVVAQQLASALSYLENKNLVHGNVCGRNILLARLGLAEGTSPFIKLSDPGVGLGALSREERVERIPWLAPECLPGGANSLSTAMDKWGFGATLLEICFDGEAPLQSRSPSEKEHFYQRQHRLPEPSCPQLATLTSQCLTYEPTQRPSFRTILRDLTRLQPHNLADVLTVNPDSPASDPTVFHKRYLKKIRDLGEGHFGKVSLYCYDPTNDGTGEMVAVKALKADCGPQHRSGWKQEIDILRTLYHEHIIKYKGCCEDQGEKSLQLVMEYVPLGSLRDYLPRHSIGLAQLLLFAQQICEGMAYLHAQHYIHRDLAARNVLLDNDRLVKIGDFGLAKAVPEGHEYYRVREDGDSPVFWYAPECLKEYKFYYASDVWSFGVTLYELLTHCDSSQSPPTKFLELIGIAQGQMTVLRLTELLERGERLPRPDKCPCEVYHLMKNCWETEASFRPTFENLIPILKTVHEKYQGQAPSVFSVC
API: value field is a number in %; no unit string.

Please review the entries below; each comes with its answer.
* COc1cc2nccc(Oc3ccc(NC(=O)C4(C(=O)Nc5ccc(F)cc5)CC4)cc3)c2cc1OC [Cabozantinib, reference compound] | 9
* COc1cc2nccc(Oc3ccc(NC(=O)C4(C(=O)Nc5ccc(F)cc5)CC4)cc3F)c2cc1Oc1ccc(N)cc1F | 7
* COc1cc2nccc(Oc3ccc(NC(=O)C4(NC(=O)c5ccc(F)cc5)CC4)cc3F)c2cc1Oc1c(F)cc(N)cc1F | 16

Log: TYK2 (Homo sapiens, UniProt P29597), compound `COc1cc2nccc(Oc3ccc(NC(=O)C4(NC(=O)c5ccc(F)cc5)CC4)cc3F)c2cc1OC` , inhibition at 1 µM = 7

Log: TYK2 (Homo sapiens, UniProt P29597), compound `COc1cc2nccc(Oc3ccc(NC(=O)C4(NC(=O)c5ccc(F)cc5)CC4)cc3F)c2cc1Oc1ccc(N)cc1F` , inhibition at 1 µM = 9

###

target: FGR (Homo sapiens, UniProt P09769)
Sequence (P09769 whole entry): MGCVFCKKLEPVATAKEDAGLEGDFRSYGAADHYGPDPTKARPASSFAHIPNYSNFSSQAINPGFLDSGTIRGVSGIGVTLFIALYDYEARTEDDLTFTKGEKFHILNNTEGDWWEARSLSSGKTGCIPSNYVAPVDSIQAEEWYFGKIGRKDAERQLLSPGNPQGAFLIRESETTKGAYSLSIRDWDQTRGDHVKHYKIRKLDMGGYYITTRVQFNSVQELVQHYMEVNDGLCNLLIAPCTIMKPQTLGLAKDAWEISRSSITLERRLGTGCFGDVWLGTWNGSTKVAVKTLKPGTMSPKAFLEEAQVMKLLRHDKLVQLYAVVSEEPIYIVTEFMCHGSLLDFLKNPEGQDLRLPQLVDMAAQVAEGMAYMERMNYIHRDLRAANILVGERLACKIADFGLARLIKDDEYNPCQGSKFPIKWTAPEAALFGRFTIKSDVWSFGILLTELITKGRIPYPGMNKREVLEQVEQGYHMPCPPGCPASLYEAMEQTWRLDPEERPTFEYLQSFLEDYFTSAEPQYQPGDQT
Quick list: IC50 per entry.
API: value field is a number in µM; no unit string.

Please review the entries below; each comes with its answer.
• CNC(=O)c1cc2c(Oc3ccc(NC(=O)C4(C(=O)Nc5ccc(F)cc5)CC4)cc3)ccnc2cc1OC [Zanzalintinib, reference compound] = 0.0354
• COc1cc2nccc(Oc3ccc(NC(=O)C4(C(=O)Nc5ccc(F)cc5)CC4)cc3F)c2cc1Oc1ccc(N)cc1F = 0.0253

Log: FGR (Homo sapiens, UniProt P09769), compound COc1cc2nccc(Oc3ccc(NC(=O)C4(C(=O)Nc5ccc(F)cc5)CC4)cc3)c2cc1OC [Cabozantinib, reference compound] , IC50 = 0.0888
